system: Trypanosoma cruzi; test: Trypanocidal activity against Trypanosoma cruzi Y in Swiss albino mouse blood after 24 hrs; type: functional, organism-based; conditions: read-out: pIC50 (converted)
Parameter measured: IC50 (mM)
Give just the numeric value; mM need not be written.

Which IC50 value is on record for "COc1ccc(/C(=C\c2cnn(-c3ccccc3)c2)C(=O)N/N=C/c2ccc(C#N)cc2)cc1" ?
1.32

Which IC50 value is on record for "CN(C)c1ccc(/C=N/NC(=O)/C(=C/c2cnn(-c3ccccc3)c2)c2ccc(O)cc2)cc1" ?
1.86

Which IC50 value is on record for "COc1ccc(/C(=C\c2cnn(-c3ccccc3)c2)C(=O)N/N=C/c2ccc([N+](=O)[O-])cc2)cc1" ?
0.977

Which IC50 value is on record for "O=C(N/N=C/c1ccc(Br)cc1)/C(=C/c1cnn(-c2ccccc2)c1)c1ccccc1" ?
1.51

Which IC50 value is on record for "O=C(N/N=C/c1ccc(O)cc1)/C(=C/c1cnn(-c2ccccc2)c1)c1ccccc1" ?
0.759

Which IC50 value is on record for "N#Cc1ccc(/C=N/NC(=O)/C(=C/c2cnn(-c3ccccc3)c2)c2ccccc2)cc1" ?
1.86
